Target: mTLR9 (Mus musculus)
Construct: Splenocytes isolated from male C57/BL6 mice; from tissue; host or cells: splenocytes from the spleen of male C57BL/6 mice
Sequence (Q9EQU3 26-1032): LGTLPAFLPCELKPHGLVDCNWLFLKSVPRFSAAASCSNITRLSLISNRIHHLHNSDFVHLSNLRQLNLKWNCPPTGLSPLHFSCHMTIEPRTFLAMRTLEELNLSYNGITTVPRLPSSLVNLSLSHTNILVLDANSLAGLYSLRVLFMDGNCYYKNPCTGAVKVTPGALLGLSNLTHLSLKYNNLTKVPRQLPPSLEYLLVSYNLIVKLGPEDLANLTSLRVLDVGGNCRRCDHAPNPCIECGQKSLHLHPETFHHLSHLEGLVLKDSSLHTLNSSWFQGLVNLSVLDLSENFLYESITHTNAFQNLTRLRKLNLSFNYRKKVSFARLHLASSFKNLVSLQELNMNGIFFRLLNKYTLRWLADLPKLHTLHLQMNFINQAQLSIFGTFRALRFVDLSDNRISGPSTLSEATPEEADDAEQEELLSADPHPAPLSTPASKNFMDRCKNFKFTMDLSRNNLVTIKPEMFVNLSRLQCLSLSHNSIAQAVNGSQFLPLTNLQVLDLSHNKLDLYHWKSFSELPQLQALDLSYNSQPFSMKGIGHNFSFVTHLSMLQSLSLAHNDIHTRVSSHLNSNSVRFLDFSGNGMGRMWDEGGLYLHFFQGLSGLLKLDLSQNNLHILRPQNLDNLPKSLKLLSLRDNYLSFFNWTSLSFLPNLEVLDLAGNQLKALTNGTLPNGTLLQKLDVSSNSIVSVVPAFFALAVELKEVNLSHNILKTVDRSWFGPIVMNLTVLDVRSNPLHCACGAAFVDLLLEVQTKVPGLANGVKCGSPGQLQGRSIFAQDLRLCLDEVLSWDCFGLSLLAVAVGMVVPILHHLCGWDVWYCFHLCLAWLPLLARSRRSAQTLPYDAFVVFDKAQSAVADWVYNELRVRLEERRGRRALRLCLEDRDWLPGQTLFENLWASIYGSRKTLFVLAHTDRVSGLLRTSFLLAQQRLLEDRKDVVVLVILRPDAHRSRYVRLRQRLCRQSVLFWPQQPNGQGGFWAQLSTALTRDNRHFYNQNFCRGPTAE
Assay: mTLR9 antagonism (IL-6 and TNF-α release assay) in mouse splenocytes, CpG ODN-2006 stimulated
Type: cell-based
Conditions: 1 μM; IL-6 release, mouse splenocytes; read-out: mTLR9 inhibitory activity (% at 1 μM), IL-6
Observation type: inhibition at 1 µM (%)
Enter your answer as a number in %; do not include the unit.

Please review the following examples before continuing.
>>> quantitative_readout("CC(C)N1CCC(c2ccc(-c3nccc4[nH]c(CN5CCOCC5)cc34)cc2)CC1 [Example A70]")
95
>>> quantitative_readout("c1cc2[nH]c(CN3CCOCC3)cc2c(-c2ccc(N3CCN(C4COC4)CC3)cc2)n1 [Example A81]")
37

Problem: Sample CN1CCN(c2ccc(-c3nccc4[nH]c(CN5CCC(F)CC5)cc34)cc2)CC1 [Example A25] — what was its inhibition at 1 µM?
Solution: 100

Problem: Let us now turn to CN1CCN(c2cccc(-c3nccc4[nH]c(CN5CCOCC5)cc34)c2)CC1 [Example A61]
Solution: 100

Problem: Let us now turn to CC(C)N1CCN(c2ccc(-c3nccc4[nH]c(CN5CCC6(CC5)CC(O)C6)cc34)cc2)CC1 [Example A13]
Solution: 100

Problem: Let us now turn to Cc1cc2c(cc(CCN3CCOCC3)n2C)c(-c2ccc(C3CCN(C(C)C)CC3)cc2)n1 [Example B31]
Solution: 100

Problem: Let us now turn to CCN1CCN(c2ccc(-c3nc(C)c(C)c4[nH]c(CN5CCOCC5)cc34)cc2)CC1 [Example A38]
Solution: 100

Problem: Let us now turn to Cc1cc2[nH]c(CN3CCOCC3)cc2c(-c2ccc(N3CCN(C(C)C)CC3)cc2)n1 [Example A4]
Solution: 100

Problem: Let us now turn to Cc1cc2c(cc(CN3CCOCC3)n2C)c(-c2ccc(N3CCN(C(C)C)CC3)cc2)n1 [Example A35]
Solution: 100

Problem: Let us now turn to CC(C)N1CCN(Cc2ccc(-c3nccc4[nH]c(CN5CCOCC5)cc34)cc2)CC1 [Example A55]
Solution: 96

Problem: Let us now turn to CCN1CCN(c2ccc(-c3nccc4[nH]c(CN5CCOCC5)cc34)cc2)CC1 [Example A3]
Solution: 100

Problem: Let us now turn to Cc1cc2c(cc(CCN3CCOCC3)n2C)c(-c2ccc(N3CCN(C(C)C)CC3)cc2F)n1 [Example B19]
Solution: 100

Problem: Let us now turn to CC(C)N1CCN(c2ccc(-c3nccc4[nH]c(CN5CC(O)C5)cc34)cc2)CC1 [Example A72]
Solution: 72

Problem: Let us now turn to Cc1cc2c(cc(CCN3CCOCC3)n2C)c(-c2ccc(N3CCN(C(C)C)CC3)cc2)n1 [Example B11]
Solution: 100

Problem: Let us now turn to Cc1cc2[nH]c(CCN3CCOCC3)cc2c(-c2ccc(N3CCN(C(C)C)CC3)cc2)n1 [Example B3]
Solution: 100

Problem: Let us now turn to CC(C)N1CCN(c2ccc(-c3nccc4[nH]c(CN5CCOCC5)cc34)cc2)CC1 [Example A1]
Solution: 100
